TEST_TARGET: human recombinant GABAA α5β3γ2 receptor (Homo sapiens (Human), UniProt P18507+P31644)
Sequence (P31644 32-462): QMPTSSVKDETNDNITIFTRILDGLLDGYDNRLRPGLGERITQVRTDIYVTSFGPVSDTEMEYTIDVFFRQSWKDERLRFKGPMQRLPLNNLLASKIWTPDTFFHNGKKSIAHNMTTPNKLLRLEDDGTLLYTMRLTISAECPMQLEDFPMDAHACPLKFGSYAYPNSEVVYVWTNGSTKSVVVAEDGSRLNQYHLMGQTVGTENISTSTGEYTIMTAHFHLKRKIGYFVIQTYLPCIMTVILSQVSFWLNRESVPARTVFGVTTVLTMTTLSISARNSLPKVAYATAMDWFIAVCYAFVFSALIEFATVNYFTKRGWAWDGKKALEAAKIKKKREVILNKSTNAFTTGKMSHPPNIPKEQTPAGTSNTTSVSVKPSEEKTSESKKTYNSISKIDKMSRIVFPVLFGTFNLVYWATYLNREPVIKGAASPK
Sequence (P18507 40-475): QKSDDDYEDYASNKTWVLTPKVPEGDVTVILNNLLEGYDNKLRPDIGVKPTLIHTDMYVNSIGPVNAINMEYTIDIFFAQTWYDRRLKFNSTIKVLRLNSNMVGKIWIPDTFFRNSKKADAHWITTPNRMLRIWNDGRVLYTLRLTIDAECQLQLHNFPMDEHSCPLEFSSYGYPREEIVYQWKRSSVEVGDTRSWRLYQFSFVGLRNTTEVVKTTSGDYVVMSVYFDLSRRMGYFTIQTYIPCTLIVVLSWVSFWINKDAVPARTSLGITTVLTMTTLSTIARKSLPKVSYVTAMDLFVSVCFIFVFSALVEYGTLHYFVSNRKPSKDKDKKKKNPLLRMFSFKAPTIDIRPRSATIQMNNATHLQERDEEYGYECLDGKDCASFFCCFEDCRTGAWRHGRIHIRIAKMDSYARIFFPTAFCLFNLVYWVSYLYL
Sequence (P28472 26-473 partner): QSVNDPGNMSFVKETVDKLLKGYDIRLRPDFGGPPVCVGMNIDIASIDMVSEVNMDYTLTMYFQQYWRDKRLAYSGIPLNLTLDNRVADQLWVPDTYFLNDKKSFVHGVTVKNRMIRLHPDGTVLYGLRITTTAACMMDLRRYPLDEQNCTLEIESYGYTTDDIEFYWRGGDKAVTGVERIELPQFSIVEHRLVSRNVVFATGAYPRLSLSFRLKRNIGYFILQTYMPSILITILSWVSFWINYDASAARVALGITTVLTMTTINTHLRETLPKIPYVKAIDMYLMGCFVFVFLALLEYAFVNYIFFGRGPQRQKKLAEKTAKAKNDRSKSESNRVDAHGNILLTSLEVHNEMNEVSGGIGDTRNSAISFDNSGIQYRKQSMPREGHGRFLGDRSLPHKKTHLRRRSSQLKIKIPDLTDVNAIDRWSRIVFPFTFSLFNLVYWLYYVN
METHOD_DESCRIPTION: Receptor binding assay, [3H]Ro151788 displacement on membranes of HEK cells
SETTINGS: [3H]Ro151788 0.5 nM, HEK cell membranes, 60 minutes at 4° C.; read-out: hGABAA α5 Ki
pKi: −log10 of the molar value.
VALUE_TYPE: pKi

P. CC(=O)N1Cc2cnc(OCc3c(-c4ccc(F)cc4)noc3C)cc2C1
Q. CC(=O)N1Cc2cnc(OCc3c(-c4ccc(F)cc4)nnn3C)cc2C1
R. CC(=O)N1Cc2cnc(OCc3c(C)nnn3-c3ccc(F)cc3)cc2C1
*Q* Highest pKi first, then in falling order down to the smallest. In your reply, arrange the labels in the requested order.
*A* P, R, Q
(P: 9.05, R: 8.00, Q: 7.49)
